src = patent US8604009B2

# System: 24-hydroxylase (24-OHase) gene promoter in ROS 17/2.8 (bone) cells
# protocol-details: In vitro transcription assay (24-hydroxylase promoter luciferase reporter)
# Assay type: cell-based
# test-settings: ROS 17/2.8 cells, 16 hours; read-out: concentration stimulating 24-OHase gene expression in bone cells
measure: EC50 (nM)

{"columns": ["compound", "measure", "experimental-result"],
 "data": [
  ["C=C1C(O)CC(=CC=C2CCCC3(C)C2CCC3C(C)C(C)(C)CCC(C)(C)O)CC1O (stereo not shown)", "EC50", 0.03]
]}

====

# test-target: full-length recombinant rat vitamin D receptor (Rattus norvegicus)
# Construct: Full-length recombinant rat receptor was expressed in E. coli BL21(DE3) Codon Plus RIL cells; histidine tag (C); made in house; host or cells: E. coli BL21(DE3) Codon Plus RIL
# Sequence (P13053 whole entry): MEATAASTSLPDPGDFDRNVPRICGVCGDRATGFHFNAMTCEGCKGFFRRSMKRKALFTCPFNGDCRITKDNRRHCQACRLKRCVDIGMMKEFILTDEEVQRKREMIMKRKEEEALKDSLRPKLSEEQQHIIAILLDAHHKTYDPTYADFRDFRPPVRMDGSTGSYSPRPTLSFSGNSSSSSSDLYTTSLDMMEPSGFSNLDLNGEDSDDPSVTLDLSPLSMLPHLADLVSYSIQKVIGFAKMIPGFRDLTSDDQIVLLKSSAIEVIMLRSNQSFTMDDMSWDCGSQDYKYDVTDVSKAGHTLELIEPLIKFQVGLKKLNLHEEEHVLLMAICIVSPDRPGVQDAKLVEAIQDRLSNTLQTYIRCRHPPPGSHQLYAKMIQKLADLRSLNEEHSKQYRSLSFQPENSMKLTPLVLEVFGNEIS
# protocol-details: Competitive vitamin D receptor binding
# test-settings: present compounds; read-out: Competitive VDR Binding (Ki)
pKi: −log10 of the molar value.

{"columns": ["molecule", "pKi"],
 "data": [
  ["C=C1C(O)CC(=CC=C2CCCC3(C)C2CCC3C(C)C(C)(C)CCC(C)(C)O)CC1O (stereo not shown) [MET-2]", 10.30]
]}

====

# System: HL-60 cells
# protocol-details: HL-60 differentiation (nitro blue tetrazolium reduction)
# Format: cell-based, human
# test-settings: Homo sapiens, HL-60, 96 h, HL-60 cells, 4 days; read-out: concentration inducing the differentiation of HL-60 cells in culture

{"columns": ["compound", "EC50 [nM]"],
 "data": [
  ["C=C1C(O)CC(=CC=C2CCCC3(C)C2CCC3C(C)C(C)(C)CCC(C)(C)O)CC1O (stereo not shown)", 0.7]
]}
